Target or system: T1, LUXMYB (UniProt Q9SNB4 139-200)
T1 sequence: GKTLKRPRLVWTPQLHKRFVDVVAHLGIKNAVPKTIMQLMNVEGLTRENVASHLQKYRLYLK
Assay info: EMSA
Please assign Not satisfied whenever Kd is at or above 20 nM, and Satisfied whenever it is below.

Binder: Oligo 3 (AAGATCTT) (dsDNA) DNA 1: ATGATGTCTTCTCAAGATCTTATAAAAATGGTGTTG DNA 2: CAACACCATTTTTATAAGATCTTGAGAAGACATCAT
Discrete label: Satisfied
--
Binder: Oligo 5 (ATATTCGA) (dsDNA) DNA 1: ATGATGTCTTCTCGAATATTCGATAAAAATGGTGTTG DNA 2: CAACACCATTTTTATCGAATATTCGAGAAGACATCAT
Discrete label: Not satisfied
--
Binder: Oligo 4 (GGATCCGA) (dsDNA) DNA 1: ATGATGTCTTCTCGGATCCGATAAAAATGGTGTTG DNA 2: CAACACCATTTTTATCGGATCCGAGAAGACATCAT
Discrete label: Satisfied
--
Binder: Oligo 2 (AGATACGC) (dsDNA) DNA 1: ATGATGTCTTCTCAAGATACGCTAAAAATGGTGTTG DNA 2: CAACACCATTTTTAGCGTATCTTGAGAAGACATCAT
Discrete label: Satisfied
--
Binder: Oligo 1 (PRR9 36 bp) (dsDNA) DNA 1: ATGATGTCTTCTCAAGATTCGATAAAAATGGTGTTG DNA 2: CAACACCATTTTTATCGAATCTTGAGAAGACATCAT
Discrete label: Not satisfied
